Origin of measurements: ChEMBL document CHEMBL5308504

Measured ΔTm, listed per entry for reference.
# assay.system: Transcription intermediary factor 1-alpha (Homo sapiens) (UniProt O15164)
# Sequence (whole entry): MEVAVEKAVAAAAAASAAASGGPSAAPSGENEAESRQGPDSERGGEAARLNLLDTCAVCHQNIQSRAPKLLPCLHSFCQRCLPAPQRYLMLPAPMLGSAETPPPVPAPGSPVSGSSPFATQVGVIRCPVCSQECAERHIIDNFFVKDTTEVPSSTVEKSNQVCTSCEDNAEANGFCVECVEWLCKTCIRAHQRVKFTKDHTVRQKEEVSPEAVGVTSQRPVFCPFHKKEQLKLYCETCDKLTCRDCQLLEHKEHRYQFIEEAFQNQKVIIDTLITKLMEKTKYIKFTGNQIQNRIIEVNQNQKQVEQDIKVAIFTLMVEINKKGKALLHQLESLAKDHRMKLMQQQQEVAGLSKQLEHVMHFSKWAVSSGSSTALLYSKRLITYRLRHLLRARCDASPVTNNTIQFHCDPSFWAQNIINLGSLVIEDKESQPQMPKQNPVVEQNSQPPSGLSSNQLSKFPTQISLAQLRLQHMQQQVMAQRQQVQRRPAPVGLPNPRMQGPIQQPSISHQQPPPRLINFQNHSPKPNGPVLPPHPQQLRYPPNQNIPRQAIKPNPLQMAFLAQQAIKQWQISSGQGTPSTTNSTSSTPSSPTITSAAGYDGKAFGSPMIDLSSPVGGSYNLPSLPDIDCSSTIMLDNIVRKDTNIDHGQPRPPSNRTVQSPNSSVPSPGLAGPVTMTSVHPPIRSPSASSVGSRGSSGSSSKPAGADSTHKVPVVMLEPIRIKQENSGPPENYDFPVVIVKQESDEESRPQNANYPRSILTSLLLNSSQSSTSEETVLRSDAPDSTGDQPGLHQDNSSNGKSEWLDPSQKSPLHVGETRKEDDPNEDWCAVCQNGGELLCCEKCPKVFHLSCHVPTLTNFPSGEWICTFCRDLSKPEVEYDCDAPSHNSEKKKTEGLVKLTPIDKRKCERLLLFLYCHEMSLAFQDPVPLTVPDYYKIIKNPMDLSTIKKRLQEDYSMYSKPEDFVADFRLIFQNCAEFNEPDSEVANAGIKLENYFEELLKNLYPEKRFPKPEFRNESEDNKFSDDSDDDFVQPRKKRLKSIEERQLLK
# test.parameters: Compound concentration 20.0 uM, Protein concentration 2.0 uM, Result type QC Liability
measured.metric: ΔTm (°C)

[[record]]
compound = "O=c1[nH]c(CS[C@H]2CC[C@H](O)CC2)nc2cc(OCC3CC3)cc(F)c12"
observed_result = -3.28

[[record]]
compound = "N=C(N)NCCC[C@@H](NC(=O)C(c1ccccc1)c1ccccc1)C(=O)NCc1ccc(CNC(N)=O)cc1"
observed_result = 0.26

[[record]]
compound = "COc1cc(-c2cc([C@H](O)C3CC3)n3ncnc(N)c23)ccc1CO"
observed_result = 0.24

[[record]]
compound = "C=CC1C[C@]1(NC(=O)[C@@H]1C[C@@H](Oc2cc(-c3csc(NC(=O)C(C)C)n3)nc3c(Br)c(OC)ccc23)CN1C(=O)[C@@H](NC(=O)OC1CCCC1)C(C)(C)C)C(=O)O (some centres not stated)"
observed_result = 2.85

[[record]]
compound = "CCN(CC)C(=O)C1CN2CCc3cc(OC)c(OC)cc3C2CC1OC(C)=O (configuration not stated)"
observed_result = 0.29

[[record]]
compound = "CNc1ncc2cc(-c3ccc(-c4ncccc4F)cc3Cl)c(=O)n(C[C@H]3OC[C@H](N)CO3)c2n1"
observed_result = -3.59

[[record]]
compound = "Cn1c(C2(NC(=O)c3ccc(NCC4CCCCC4)nc3)CCC2)nc2ccc(/C=C/C(=O)O)cc21"
observed_result = 0.39

[[record]]
compound = "CCCCc1c(-c2ccccc2)nc(N)nc1-c1ccc(OCc2ccccc2)c(F)c1F"
observed_result = -1.94

[[record]]
compound = "O=C(O)c1ccnc(N2CC(O)(c3ccc(OCc4c(-c5c(Cl)cccc5Cl)noc4C4CC4)cc3Cl)C2)c1"
observed_result = -1.77

[[record]]
compound = "CP(C)(=O)c1ccc(CNC(=O)C2CCN(S(=O)(=O)c3cc(Cl)cc(Cl)c3)CC2)cc1"
observed_result = 0.94

[[record]]
compound = "Cc1cc(-c2cnc(N)c3c(-c4ccc5scnc5c4)csc23)n(C)n1"
observed_result = -1.95

[[record]]
compound = "O=C(Nc1ccc(OC(F)(F)Cl)cc1)c1cnc(N2CC[C@@H](O)C2)c(-c2cc[nH]n2)c1"
observed_result = -3.05

[[record]]
compound = "CC(C)(C)C(=O)NCc1ccc(Cl)c(C(=O)Nc2ncc[nH]2)c1"
observed_result = -0.67

[[record]]
compound = "CC(C)(O)[C@H](F)CN1Cc2cc(NC(=O)c3cnn4cccnc34)c(N3CCOCC3)cc2C1=O"
observed_result = -2.63

[[record]]
compound = "O=C1CCCc2[nH]c(-c3ccnc(NCC4CC4)c3)c(Nc3ccccc3)c21"
observed_result = -0.08

[[record]]
compound = "COc1cc2ncnc(Nc3cccc(O)c3)c2cc1OC"
observed_result = -0.88

[[record]]
compound = "CNc1nc(Nc2ccc(C(=O)N3CCOCC3)cc2OC)ncc1Cl"
observed_result = -2.04

[[record]]
compound = "C=C(F)C(=O)N1CCN(c2nc(OC[C@@H]3CCCN3C)nc3c2CCN(c2cccc4cccc(Cl)c24)C3)C[C@@H]1CC#N"
observed_result = -0.78

[[record]]
compound = "CC(=O)c1c(C)c2cnc(Nc3ccn(C)n3)nc2n(C2CCCC2)c1=O"
observed_result = -2.16

[[record]]
compound = "Cn1cnc(Cn2ccc3ccc(CNCc4[nH]c5ccccc5c4[C@@H]4NC(=O)c5ccc(O)cc54)cc32)c1"
observed_result = 0.32

[[record]]
compound = "O=C1NC(=NCc2cccs2)SC1=Cc1ccc2ncccc2c1"
observed_result = -1.13

[[record]]
compound = "NC(=O)C1CCCc2c1[nH]c1ccc(Cl)cc21 (configuration not stated)"
observed_result = -1.04

[[record]]
compound = "CN(C)c1ccc(-c2cc3ncccc3c(OCCCCO)n2)cc1"
observed_result = -3.64

[[record]]
compound = "Cc1cc(NC(=O)c2cccc(NC(=O)/C=C/CN(C)C)c2)ccc1Nc1nccc(-c2cccnc2)n1"
observed_result = -1.44

[[record]]
compound = "COc1cc(N2CCN(C)CC2)ccc1Nc1ncc2c(n1)N(C)c1ccccc1C(=O)N2CC(F)(F)F"
observed_result = -2.27

[[record]]
compound = "CCS(=O)(=O)Nc1cccc(Oc2cncc(Nc3ccc(I)cc3F)c2C(N)=O)c1"
observed_result = 1.47

[[record]]
compound = "CC(C)(C)NC(=O)c1cncn1C1CCN(c2ccc(-c3nnc(C(F)(F)F)o3)cn2)CC1"
observed_result = 0.46

[[record]]
compound = "CC(=O)N(CCN(C)C)c1ccc(N/C(=C2\\C(=O)Nc3cc(Cl)ccc32)c2ccccc2)cn1"
observed_result = -4.13

[[record]]
compound = "COCCNC1CCC(Nc2cc(-c3csc(NCC4(C#N)CCOCC4)n3)c(Cl)cn2)CC1 (configuration not stated)"
observed_result = -2.77

[[record]]
compound = "COc1ccccc1Nc1nc(-c2nn(Cc3c(F)cc(OCCCO)cc3F)c3ccccc23)ncc1OC"
observed_result = -1.94

[[record]]
compound = "COc1ccc(-c2cc3c(C)nc(N)nc3n([C@H]3CC[C@H](OCCO)CC3)c2=O)cn1"
observed_result = -2.05

[[record]]
compound = "COc1cc(-c2cc3ncccc3c(O[C@@H](C)[C@H]3CNC(=O)C3)n2)cc(OC)c1OC"
observed_result = 0.27

[[record]]
compound = "CC(C(=O)Nc1cc(C#N)ccc1CCCC(=O)O)c1ccc(F)c2ccccc12 (configuration not stated)"
observed_result = -1.35

[[record]]
compound = "Nc1ncc2c(n1)-c1c([nH]c3ccc(C4CC4)cc13)CCCC2"
observed_result = -1.92

[[record]]
compound = "CC(C)(C)OC(=O)CN1C(=O)c2c(OCC(=O)O)cccc2Oc2ccc(C(F)(F)F)cc21"
observed_result = 0.32

[[record]]
compound = "O=C(Nc1ccccc1C(=O)O)c1cc(S(=O)(=O)c2ccccc2)ccc1Cl"
observed_result = 0.36

[[record]]
compound = "CN(C)[C@H]1CCN(c2cc(C(F)(F)F)c(C#N)c(Nc3cccc(CCC(=O)O)c3)n2)C1"
observed_result = 0.26

